- testSystem: Sushi domains (SD1/2) protein of GABAB1a (GB1a)
- Sequence (Q9Z0U4 29-158): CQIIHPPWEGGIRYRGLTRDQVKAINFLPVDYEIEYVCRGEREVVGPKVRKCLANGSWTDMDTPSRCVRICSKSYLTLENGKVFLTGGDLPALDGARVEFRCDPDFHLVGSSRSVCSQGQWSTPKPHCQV
- procedureDetails: FP competition vs TAMRA AJAP-1probe
Non-standard residues stand in square brackets, D forms with d. Phe(4-NH2) = Nc1ccc(C[C@H](N)C(=O)O)cc1
observationType: Ki

Prompt line: # get_value(readout='Ki', item= Ac-EDDDWIDWGPTSDDDGGGGSRRRRRRRR-NH2 [17-FL-R8] )
Response line: 147 nM

Prompt line: # get_value(readout='Ki', item= Ac-EDDSDVWW[Phe(4-NH2)]GADTD-NH2 (SMILES CC(=O)N[C@@H](CCC(=O)O)C(=O)N[C@@H](CC(=O)O)C(=O)N[C@@H](CC(=O)O)C(=O)N[C@@H](CO)C(=O)N[C@@H](CC(=O)O)C(=O)N[C@H](C(=O)N[C@@H](Cc1c[nH]c2ccccc12)C(=O)N[C@@H](Cc1c[nH]c2ccccc12)C(=O)N[C@@H](Cc1ccc(N)cc1)C(=O)NCC(=O)N[C@@H](C)C(=O)N[C@@H](CC(=O)O)C(=O)N[C@H](C(=O)N[C@@H](CC(=O)O)C(N)=O)[C@@H](C)O)C(C)C) [EDDSDVWW(Aphe)GADTD] )
Response line: 102 nM
